Examples of compounds with documented LD50 at 72 h follow.
method.description: Acute toxicity in mice
Set-up: species or system mouse (ddy male)
test.parameters: mouse, in vivo, po; Table 3, mice
property.measured: LD50 at 72 h (mg/kg)

[
  {
    "substance.smiles": "Cn1cnc2c1c(=O)n(CCCN1CCN(c3ccccc3Cl)CC1)c(=O)n2C",
    "recorded.measurement": 200
  },
  {
    "substance.smiles": "Cc1cccc(N2CCN(CCn3c(=O)c4c(ncn4C)n(C)c3=O)CC2)c1C",
    "recorded.measurement": 600
  },
  {
    "substance.smiles": "Cn1cnc2c1c(=O)n(CCCCN1CCN(c3ccc(F)cc3)CC1)c(=O)n2C",
    "recorded.measurement": 200
  },
  {
    "substance.smiles": "Cc1cccc(N2CCN(CCCCCn3c(=O)c4c(ncn4C)n(C)c3=O)CC2)c1",
    "recorded.measurement": 300
  }
]
